Experiment: Protein binding in mice plasma using Rapid Equilibrium Dialysis
Format: in vitro ADME, CD1 mice
Settings: CD1 mouse plasma, 37° C., 5 hours
Protocol: Example B04: Protein binding in mice plasma using Rapid Equilibrium Dialysis […] Selected plasma is brought from −20° C. to 37° C. using water bath before its use. […] Supernatants are analyzed using a Mass Spectrometer. […] After the concentration of free drug and total drug has been determined by LCMS/MS, percent plasma protein binding can be calculated as follows: [formula] Following this protocol, % fraction unbound in plasma from different species can be also measured.
MEASURED_ENDPOINT: % fraction unbound in mouse plasma (%)
Reply with just the number (in %).

Some compounds with known % fraction unbound in mouse plasma results, for comparison:
>>> measurement("CC(c1ccc2scnc2c1)N1CCN(c2ncc(S(C)(=N)=O)cn2)CC1 (single isomer, unassigned) [Example 36]")
45.51
>>> measurement("CC(c1ccc2c(c1)OCC2)N1CCN(c2ncc(S(C)(=N)=O)cn2)CC1 (single isomer, unassigned)")
35.63

-- ask Assign % fraction unbound in mouse plasma to the following record: CC(c1ccc2scnc2c1)N1CCN(c2ncc(S(C)(=N)=O)cn2)CC1 (single isomer, unassigned) [Example 35]
-- reply 33.7

-- ask Assign % fraction unbound in mouse plasma to the following record: Cc1nc2cc(C(C)N3CCN(c4ncc(S(C)(=N)=O)cn4)CC3)ccc2s1 (single isomer, unassigned)
-- reply 12.81
